For each entry below, report its GI50 value.
System: DU-145 prostate
MEASUREMENT DESCRIPTION: NCI tumour cell line growth inhibition, 48 h

STRUCTURE	ENDPOINT NAME	RESULT
COCC[C@H]1CCC/C=C/[C@@H]2C[C@H](O)C[C@H]2[C@H](O)/C=C/C(=O)O1	GI50	0.445 µM

# return GI50 for each item in the list
1. c1ccc(Sc2ccc(Cc3nc4cc5ccccc5cc4[nH]3)cc2)cc1
2. Cc1cc(C)c(NC(=O)c2sc3nc4c(cc3c2N)C(=O)CCC4)c(C)c1

23 µM
3.36 µM

###

Tested on: SW-620 colon
MEASUREMENT DESCRIPTION: NCI tumour cell line growth inhibition, 48 h; in the data active means GI50 below about 0.43 µM; inactive means the rest
Choose one outcome from this list and give only that: active, inactive

Examples with answers:
STRUCTURE	CLASS ASSIGNMENT
COc1ccc(C(=O)c2cc(C)c(OC)c(C)c2)cc1OC(=O)CCl	active
COc1cc2oc(-c3ccc(O)cc3)c(OC)c(=O)c2c(O)c1OC	inactive
CN1CCN(CCCNc2nc3ccc(Oc4ccc(NC(=O)Nc5cc(C(F)(F)F)ccc5F)cc4)cc3[nH]2)CC1	inactive
COc1ccc(-c2nc3ccccn3c2/C=C/C(=O)c2cc(OC)c(OC)c(OC)c2)cc1OC	inactive

Okay, now this compound:
What was the test verdict on `Cc1cc2ncnn2cc1Nc1ncc2c(n1)n(C1CCOCC1)c(=O)n2C` ?
inactive
